- Tested on: RTK / phosphorylation of ERK (pERK)
- assay.info: Western blot of ERK phosphorylation (functional RTK inhibition) in MDA-MB-231 cells
- Type: cell-based, human
- measurement.context: Homo sapiens, MDA-MB-231

{"compound": "CCOC(=O)C1=C(Nc2ccccc2)S/C(=C\\c2ccc(OCCOCCOCCOCCNC(=O)NCCN3CCN(c4ccc5[nH]c(-c6c(N)c7c(F)cccc7[nH]c6=O)nc5c4)CC3)c(O)c2)C1=O", "IC50 (nM)": 10000}
{"compound": "CN1CCN(c2ccc3nc(-c4c(N)c5c(F)cccc5[nH]c4=O)[nH]c3c2)CC1 [Compound 1, Dovitinib, reference compound]", "IC50 (nM)": 100}
{"compound": "Cc1ncsc1-c1ccc(CNC(=O)[C@@H]2C[C@@H](O)CN2C(=O)[C@@H](NC(=O)NCCOCCOCCOCCOCCC(=O)NCCN2CCN(c3ccc4[nH]c(-c5c(N)c6c(F)cccc6[nH]c5=O)nc4c3)CC2)C(C)(C)C)cc1", "IC50 (nM)": 20}
